All values here come from ChEMBL document CHEMBL4130568.

- Target of assay: Carbonic anhydrase (Candida glabrata CBS 138, UniProt Q6FTL6)
- Sequence (Q6FTL6 whole entry): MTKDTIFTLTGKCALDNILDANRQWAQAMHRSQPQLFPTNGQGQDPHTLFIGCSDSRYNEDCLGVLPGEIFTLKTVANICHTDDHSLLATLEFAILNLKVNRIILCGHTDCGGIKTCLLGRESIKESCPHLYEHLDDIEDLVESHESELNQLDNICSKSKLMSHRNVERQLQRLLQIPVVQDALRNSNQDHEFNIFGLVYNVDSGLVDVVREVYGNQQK
Parameter: Ki (nM)
Your answer should be a plain number; it is taken to be in nM.

Q: Note down Ki recorded for OB1OCc2ccc(NC(=S)NCc3ccco3)cc21
Ans: 229

Q: Could you please provide reported Ki for OB1OCc2ccc(NC(=S)Nc3ccccc3)cc21 ? Thanks!
Ans: 97

Q: Please give the documented Ki of O=C(Nc1ccc(F)cc1)Nc1ccc2c(c1)B(O)OC2
Ans: 75

Q: Look up and report measured Ki for this entry: O=C(Nc1ccc(Cl)cc1)Nc1ccc2c(c1)B(O)OC2
Ans: 81

Q: For the compound O=[N+]([O-])c1ccc2c(c1)B(O)OC2 , give its reported Ki.
Ans: 89

Q: Supply reported Ki belonging to this compound: O=C(Nc1ccc(C(F)(F)F)cc1)Nc1ccc2c(c1)B(O)OC2
Ans: 96

Q: Look up Ki of O=[N+]([O-])c1ccc(NC(=S)Nc2ccc3c(c2)B(O)OC3)cc1 and report it.
Ans: 96

Q: Could you please provide reported Ki for O=C(Nc1ccc2c(c1)B(O)OC2)Nc1c(Cl)cc(Cl)cc1Cl ? Thanks!
Ans: 81

Q: Find the measured Ki of OB1OCc2cc(F)ccc21 and report it.
Ans: 72

Q: Consider the compound Cc1ccc(NC(=S)Nc2ccc3c(c2)B(O)OC3)cc1 . State its measured Ki.
Ans: 89

Q: Report measured Ki; entry is CC(=O)c1ccc(NC(=O)Nc2ccc3c(c2)B(O)OC3)cc1
Ans: 203

Q: Return value of Ki for input OB1OCc2ccc(NC(=S)Nc3ccc(F)cc3)cc21 , no commentary.
Ans: 86
